- tested on: human CDK4/cyclin D3 (Homo sapiens)
- Construct: made in house; host or cells: insect cells co-infected with baculovirus vectors
- Sequence (P11802 whole entry): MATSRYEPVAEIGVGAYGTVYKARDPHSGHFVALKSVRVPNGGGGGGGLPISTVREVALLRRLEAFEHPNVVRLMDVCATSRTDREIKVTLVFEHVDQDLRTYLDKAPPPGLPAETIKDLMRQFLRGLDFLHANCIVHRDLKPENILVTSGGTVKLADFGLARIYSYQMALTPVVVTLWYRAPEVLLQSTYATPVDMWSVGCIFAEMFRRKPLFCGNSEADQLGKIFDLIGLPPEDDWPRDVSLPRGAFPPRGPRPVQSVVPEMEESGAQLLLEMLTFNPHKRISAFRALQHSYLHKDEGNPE
- Sequence (P30281 1-264 partner limits assumed): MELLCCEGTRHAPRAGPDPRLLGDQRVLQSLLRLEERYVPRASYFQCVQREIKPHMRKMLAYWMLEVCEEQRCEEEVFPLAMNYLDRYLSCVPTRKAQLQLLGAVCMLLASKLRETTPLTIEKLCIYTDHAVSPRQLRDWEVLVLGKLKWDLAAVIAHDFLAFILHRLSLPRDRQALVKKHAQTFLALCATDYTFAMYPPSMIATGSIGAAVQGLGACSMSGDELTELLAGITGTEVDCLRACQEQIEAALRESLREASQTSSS
- protocol description: Inhibition of CDK4/cyclin D retinoblastoma kinase activity (Ki; % inhibition)
- Type: biochemical
- conditions: at 0.03 μM
Overview of recorded CDK4 % Inhibition at 0.03 μM for various compounds
reported endpoint: CDK4 % Inhibition at 0.03 μM

Nc1nc(Nc2ccc(C(=O)NCCc3ccccn3)cc2)sc1C(=O)c1c(F)cccc1F    19%
Nc1nc(Nc2ccc(C(=O)NC3CCOC3=O)cc2)sc1C(=O)c1c(F)cccc1F (centres unmarked)    19%
COc1ccc(CNC(=O)c2ccc(Nc3nc(N)c(C(=O)c4c(F)cccc4F)s3)cc2)cc1    49%
Nc1nc(Nc2ccc(C(=O)NCc3ccccn3)cc2)sc1C(=O)c1c(F)cccc1F    29%
CN(CCc1ccccn1)C(=O)c1ccc(Nc2nc(N)c(C(=O)c3c(F)cccc3F)s2)cc1    16%
CC(C)NC(=O)c1ccc(Nc2nc(N)c(C(=O)c3c(F)cccc3F)s2)cc1    5%
CSCCC(O)NC(=O)c1ccc(Nc2nc(N)c(C(=O)c3c(F)cccc3F)s2)cc1 (centres unmarked)    12%
Nc1nc(Nc2ccc(C(=O)Nc3ccccc3)cc2)sc1C(=O)c1c(F)cccc1F    5%
